From: PubChem BioAssay

EXPERIMENT_DESCRIPTION: viability loss with induced miR-34 in A549 – imaging, A549 dox-inducible miR-34, nuclei and caspase counts, primary screen (AID 1347080)
ASSAY_SETUP: A549 miR-34 inducible, Hoechst nuclei count, 48 h; stronger effect = lower value; cell number ratio, induced over uninduced

COMPOUND: CCn1cc(CNC(=O)Nc2nnc(C(C)(C)C)s2)cn1
fold change: 0.886

COMPOUND: CCCCNS(=O)(=O)c1ccccc1
fold change: 0.925

COMPOUND: COc1cc2c(cc1OC)CC(=O)N(CCCN(C)CC1Cc3cc(OC)c(OC)cc31)CC2 (configuration not stated)
fold change: 0.865

COMPOUND: Cn1cc(C(F)(F)F)nc1-c1ccc(OCC(O)CNCCOc2ccc(O)c(C(N)=O)c2)cc1 (configuration not stated)
fold change: 0.893

COMPOUND: CN1CCC(NC(=O)c2cc(-c3c(O)cc(O)cc3Oc3ccc([N+](=O)[O-])cc3)on2)CC1
fold change: 1.08

COMPOUND: CCN(CC)C(=O)c1c(NC(=O)c2cccs2)sc2c1CCCC2
fold change: 1.02

COMPOUND: O=C(Nc1nncs1)NC1Cc2ccccc2C1
fold change: 0.87

====

EXPERIMENT_DESCRIPTION: compounds altering Cy5-DNA-NS3h complex signal – biochemical, LOPAC1280, artefact control for HCV NS3 helicase inhibitor project (AID 687037)
ASSAY_SETUP: Cy5-DNA-NS3h complex fluorescence interference counterscreen
The entries below come with measured fluorescence ratio (interference) values attached.

MOLECULE: O=C(O)CCC/C=C\C[C@@H]1[C@@H](/C=C/[C@H](O)C2Cc3ccccc3C2)[C@@H](F)C[C@@H]1O
fluorescence ratio (interference): 1
--
MOLECULE: Cn1cc(C(F)(F)F)nc1-c1ccc(OCC(O)CNCCOc2ccc(O)c(C(N)=O)c2)cc1 (centres undefined)
fluorescence ratio (interference): 1
--
MOLECULE: CCCCCCC/C=C\CCCCCCCCC(=O)O
fluorescence ratio (interference): 0.9
--
MOLECULE: Nc1nc2[nH]c(=O)cnc2c(=O)[nH]1
fluorescence ratio (interference): 1

====

EXPERIMENT_DESCRIPTION: MELAS cybrid and Rieske KO viability enhancers – cell-based, MELAS cybrids, Rieske KO mouse fibroblasts, CellTiter-Glo, primary screen (AID 1508586);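 further: z relative to plate mean and SD of compound and empty wells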
ASSAY_SETUP: MELAS cybrid survival, low glucose, CellTiter-Glo 48 h
Calls of active or inactive are those of the source.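 Rule for the calls: active = mean z-score across replicates of 1.96 or higher in either the MELAS or the Rieske mutant cell line; inactive = the rest.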
Possible outcomes: Yes for active, No for inactive

COMPOUND: CC(C)=CCNc1cc(C(=O)NCc2cn3ccccc3n2)cc(S(=O)(=O)NC(C)C)c1
LABEL: No
//
COMPOUND: Cc1cc(NC(=O)c2cccc(NC(=O)C=CCN(C)C)c2)ccc1Nc1nccc(-c2cccnc2)n1
LABEL: No
//
COMPOUND: COc1ccc2c(c1)N(C[C@H](C)CN(C)C)c1ccccc1S2
LABEL: No
//
COMPOUND: O=C(O)c1ccc(-c2ccc(F)cc2)cc1
LABEL: No
//
COMPOUND: CCC1OC(=O)C(C)C(OC2C[C@@](C)(OC)C(O)C(C)O2)C(C)C(OC2OC(C)CC(N(C)C)C2O)[C@](C)(O)CC(C)C(=NOCOCCOC)C(C)C(O)[C@]1(C)O (stereo partly specified)
LABEL: No
//
COMPOUND: CC1C[C@@H]2[C@@H](C(O)C[C@@]3(C)[C@H]2CC[C@@]3(O)C(=O)CO)[C@@]2(C)C=CC(=O)C=C12 (stereo partly specified)
LABEL: No
//
COMPOUND: Cc1ccn2cc(C(=O)N3CCc4c(cc(-c5ccc(OC(F)(F)F)cc5)c(=O)n4C)C3)nc2c1
LABEL: No
//
COMPOUND: CCOC(=O)c1csc(CCNC2CCc3c(c(C(=O)N4CCc5ccccc5C4)nn3C)C2)n1 (stereo unspecified)
LABEL: No
//
COMPOUND: CC(c1cccc(O)c1)N(C)C (stereo unspecified)
LABEL: No
//
COMPOUND: CC(C)n1cc(-c2cc(C(=O)N(C)Cc3cccnc3)c3ccc(F)cc3n2)cn1
LABEL: No
//
COMPOUND: O=C(O)CCCCCNC(=O)NC1CCCCC1
LABEL: No
//
COMPOUND: CN1CCN(Cc2ccc3sccc3c2)CC1CCO (stereo unspecified)
LABEL: No
//
COMPOUND: O=C(C=Cc1ccc2ccccc2n1)c1ccncc1
LABEL: No
//
COMPOUND: OC(CCN1CCCCC1)(c1ccccc1)C1C[C@@H]2C=C[C@H]1C2 (stereo partly specified)
LABEL: No
//
COMPOUND: Cc1ccc2c(-c3cc4c(n(CC5CC5)c3=O)CCN(C(=O)c3ccc5c(c3)OCO5)C4)cccc2n1
LABEL: Yes
//
COMPOUND: O=CC(O)C(O)C(O)C(O)CO (stereo unspecified)
LABEL: No
//
COMPOUND: Nc1nc(-c2ccc(O)cc2)cs1
LABEL: No
//
COMPOUND: C=CC[N+]1(C2C[C@H]3[C@@H]4CC[C@H]5CC(O)C(N6CCOCC6)C[C@]5(C)[C@@H]4CC[C@]3(C)C2OC(C)=O)CCCC1 (stereo partly specified)
LABEL: No
//
COMPOUND: NC(=O)CCCSc1nc(N)nc(-c2c(Cl)cc3c4c(cccc24)COC3)n1
LABEL: Yes
//
COMPOUND: N#Cc1ccc2[nH]c(O)c(-c3ccc(CN4CCOCC4)cn3)c2c1
LABEL: No
//
COMPOUND: O=C(O)CCCN1CCC(OC(c2ccc(Cl)cc2)c2ccccn2)CC1 (stereo unspecified)
LABEL: No
//
COMPOUND: C=C1C(CO)C(O)CC1n1cnc2c(=O)[nH]c(N)nc21 (stereo unspecified)
LABEL: No
//
COMPOUND: CC(=O)O[C@]12COC1CC(O)[C@]1(C)C(=O)C(O)C3=C(C)C(OC(=O)C(O)C(NC(=O)OC(C)(C)C)c4ccccc4)C[C@](O)(C(OC(=O)c4ccccc4)C21)C3(C)C (stereo partly specified)
LABEL: Yes
//
COMPOUND: OCC(O)COc1ccc(Cl)cc1 (stereo unspecified)
LABEL: No
//
COMPOUND: CN(Cc1noc(C2CCCC2)n1)C(=O)c1nc(=O)[nH]c2ccccc12
LABEL: No
//
COMPOUND: Cc1cc(-c2cc3c(n(C)c2=O)CCN(Cc2ccc(Sc4nncn4C)o2)C3)ccc1F
LABEL: No
//
COMPOUND: CC(C)n1cc(-c2cc(C(=O)N(C)Cc3ccncc3)c3cc(F)ccc3n2)cn1
LABEL: No
//
COMPOUND: COc1cccc2c1C(=O)c1c(O)c3c(c(O)c1C2=O)C[C@@](O)(C(=O)CO)C[C@@H]3O[C@@H]1C[C@H](N)[C@@H](O)[C@H](C)O1
LABEL: Yes
//
COMPOUND: CC[C@H](C)[C@H](NC(=O)c1nc2ccccc2c(=O)[nH]1)C(=O)OC
LABEL: No
//
COMPOUND: Cc1onc(-c2c(Cl)cccc2Cl)c1C(=O)NC1C(=O)N2C1SC(C)(C)C2C(=O)O (stereo unspecified)
LABEL: No

====

EXPERIMENT_DESCRIPTION: drug combination growth inhibition, ovarian cancer – cell-based, oncology-focused library, rucaparib conditional, profiling panel (AID 1508598)
ASSAY_SETUP: patient-derived ovarian cancer cells, CellTiter-Glo viability, 144 h; at 0.00122 µM; OCI-C5x cells; with rucaparib 10 µM; 100% = cells with rucaparib alone
Active and inactive are the calls of the source.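 Rule for the calls: active = normalized viability below 100% at a tested concentration; inactive = the rest.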
Possible outcomes: true (1) for active, false (0) for inactive

SUBSTANCE_SMILES: C[C@]12CC[C@H]3c4ccc(O)cc4CC[C@H]3[C@@H]1CC[C@H]2O
LABEL: false (0)
--
SUBSTANCE_SMILES: COc1cccc2c1C(=O)c1c(O)c3c(c(O)c1C2=O)C[C@@](O)(C(=O)CO)C[C@H]3O[C@H]1C[C@H](N)[C@@H](O)[C@H](C)O1
LABEL: true (1)
--
SUBSTANCE_SMILES: Nc1nonc1C(=Nc1ccc(F)c(Cl)c1)NO
LABEL: false (0)

====

EXPERIMENT_DESCRIPTION: growth inhibition, single agents and combos, UWB1.289, cell-based, BGB or cisplatin combos, synergistic combos for chromothripsis tumors (AID 1671456);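 further: cells exposed to compound for four days; 0% = vehicle DMSO and 100% = killing by high DMSO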
ASSAY_SETUP: UWB1.289 ovarian carcinoma cells, at 0.5 µM, stronger effect = higher value
Rule: inhibition of 10% or more gives y; anything lower gives n.

MOLECULE: O=C(CCCCCCC(=O)Nc1ccc(I)cc1)NO
LABEL: y
//
MOLECULE: CC(C)c1ccc(-c2cc(=O)c3ccccc3o2)cc1
LABEL: n
//
MOLECULE: Cc1cc(C)c(Nc2ccnc(Nc3ccc(C#N)cc3)n2)c(C)c1
LABEL: n
//
MOLECULE: CC(C=CC(=O)NO)=CC(C)C(=O)c1ccc(N(C)C)cc1 (stereo not drawn)
LABEL: y
//
MOLECULE: NC(=O)c1cccc2cn(-c3ccc(C4CCCNC4)cc3)nc12 (stereo not drawn)
LABEL: n
//
MOLECULE: Cc1cc(C=CC#N)cc(C)c1Nc1ccnc(Nc2ccc(C#N)cc2)n1
LABEL: n
//
MOLECULE: Cc1cc(C)cc(C(=O)NOCCCCCC(=O)NO)c1
LABEL: y
//
MOLECULE: Cn1cnc2[nH]c(=O)[nH]c(=O)c21
LABEL: n
